TGT: Cytochrome P450 2C9 (Homo sapiens, UniProt P11712)
Sequence (P11712 whole entry): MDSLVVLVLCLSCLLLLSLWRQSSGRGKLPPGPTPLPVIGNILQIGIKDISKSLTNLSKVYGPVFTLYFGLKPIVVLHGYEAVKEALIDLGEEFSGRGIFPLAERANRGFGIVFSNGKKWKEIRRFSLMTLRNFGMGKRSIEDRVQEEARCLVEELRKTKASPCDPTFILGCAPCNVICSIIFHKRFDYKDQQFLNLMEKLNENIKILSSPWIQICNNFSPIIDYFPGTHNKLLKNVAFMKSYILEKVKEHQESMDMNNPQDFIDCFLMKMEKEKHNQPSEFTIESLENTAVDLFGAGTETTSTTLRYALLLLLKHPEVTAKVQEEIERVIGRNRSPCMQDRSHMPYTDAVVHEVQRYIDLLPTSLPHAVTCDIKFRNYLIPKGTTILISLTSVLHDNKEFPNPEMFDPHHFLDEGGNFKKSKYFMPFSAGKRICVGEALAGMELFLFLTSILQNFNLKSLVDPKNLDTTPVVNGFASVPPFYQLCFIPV
MEASUREMENT LABEL: IC50 (µM)
# output: bare number, implied unit µM

Entry FC(F)(F)c1nccc(N[C@H]2CC[C@@H](Nc3ccc4nnc(Cl)n4n3)CC2)n1 : reported IC50 = ?
10

###

# reported logD; entries follow
TEST DETAILS: Lipophilicity, log D of compound at 7.4 by LC-MS analysis
Format: physicochemical
RUN PARAMETERS: pH 7.4
Response field accepts a number only; no unit should be typed.

{"INPUT SMILES": "FC(F)(F)c1nccc(N[C@H]2CC[C@@H](Nc3ncnc4sccc34)CC2)n1", "logD": 2.9}
{"INPUT SMILES": "FC(F)(F)c1nccc(N[C@H]2CC[C@@H](Nc3ccc4nnc(Cl)n4n3)CC2)n1", "logD": 3.1}

Okay, next one:
Fill blank: measured logD of the molecule FC(F)(F)c1nccc(N2CCN(c3ccc4nnc(Cl)n4n3)CC2)n1 is ____.
2.4

###

TGT: Mucosa-associated lymphoid tissue lymphoma translocation protein 1 (Homo sapiens)
Sequence (Q9UDY8 whole entry): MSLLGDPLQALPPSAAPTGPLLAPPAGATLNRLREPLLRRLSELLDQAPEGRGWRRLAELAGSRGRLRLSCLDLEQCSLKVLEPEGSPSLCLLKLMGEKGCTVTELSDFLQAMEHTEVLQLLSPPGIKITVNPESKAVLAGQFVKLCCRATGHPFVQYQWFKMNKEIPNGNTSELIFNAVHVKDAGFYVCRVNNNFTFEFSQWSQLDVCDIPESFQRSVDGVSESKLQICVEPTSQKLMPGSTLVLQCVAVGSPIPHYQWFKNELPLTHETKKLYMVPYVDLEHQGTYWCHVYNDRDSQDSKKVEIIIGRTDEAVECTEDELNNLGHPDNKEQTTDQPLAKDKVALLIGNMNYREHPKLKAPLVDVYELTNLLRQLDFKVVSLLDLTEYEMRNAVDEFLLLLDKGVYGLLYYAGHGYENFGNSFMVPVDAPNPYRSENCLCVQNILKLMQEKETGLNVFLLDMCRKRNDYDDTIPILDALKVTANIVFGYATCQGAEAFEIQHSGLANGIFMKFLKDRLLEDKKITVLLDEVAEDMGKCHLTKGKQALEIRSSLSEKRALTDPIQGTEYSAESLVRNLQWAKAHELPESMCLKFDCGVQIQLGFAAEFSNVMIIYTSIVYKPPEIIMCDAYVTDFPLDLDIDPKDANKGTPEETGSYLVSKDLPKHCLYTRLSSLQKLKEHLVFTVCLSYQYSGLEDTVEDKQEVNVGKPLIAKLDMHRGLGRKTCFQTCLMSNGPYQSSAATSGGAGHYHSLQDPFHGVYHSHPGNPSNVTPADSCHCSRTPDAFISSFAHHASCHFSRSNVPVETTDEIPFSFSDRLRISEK
TEST DETAILS: Inhibition of human MALT1 assessed as cleavage of substrate using fluorescent labeled Ac-LRSR-Rh110 peptide as substrate incubated for 30 mins followed by substrate addition and measured after 3 to 4 hrs by FRET assay
Output True for records whose IC50 is lower than 2 µM, False for records at or above 2 µM.

A selection of reference data follows.
{"COMPOUND": "FC(F)(F)c1nccc(N[C@H]2CC[C@@H](Nc3ccc4cnccc4n3)CC2)n1", "TGT": "Mucosa-associated lymphoid tissue lymphoma translocation protein 1 (Homo sapiens)", "ASSIGNED LABEL": "False"}
{"COMPOUND": "FC(F)(F)c1nccc(N2CCC(CNc3ccc4nnc(Cl)n4n3)CC2)n1", "TGT": "Mucosa-associated lymphoid tissue lymphoma translocation protein 1 (Homo sapiens)", "ASSIGNED LABEL": "False"}
{"COMPOUND": "CSc1nnc2ccc(N[C@H]3CC[C@@H](Nc4ccnc(C(F)(F)F)n4)CC3)nn12", "TGT": "Mucosa-associated lymphoid tissue lymphoma translocation protein 1 (Homo sapiens)", "ASSIGNED LABEL": "True"}
{"COMPOUND": "FC(F)(F)c1nccc(NC2CCN(c3ccc4nnc(Cl)n4n3)CC2)n1", "TGT": "Mucosa-associated lymphoid tissue lymphoma translocation protein 1 (Homo sapiens)", "ASSIGNED LABEL": "False"}
{"COMPOUND": "FC(F)(F)c1nccc(NCC2CCN(c3ccc4nnc(Cl)n4n3)CC2)n1", "TGT": "Mucosa-associated lymphoid tissue lymphoma translocation protein 1 (Homo sapiens)", "ASSIGNED LABEL": "False"}

State whether 2 µM exceeds IC50 recorded for FC(F)(F)c1nccc(N[C@H]2CC[C@@H](Nc3ccc4nnc(C(F)(F)F)n4n3)CC2)n1 .
True

Then this compound: FC(F)(F)c1cc(N[C@H]2CC[C@@H](Nc3ccc4nnc(Cl)n4n3)CC2)ccn1
True

Further, for FC(F)(F)c1cccc(N[C@H]2CC[C@@H](Nc3ccc4nnc(Cl)n4n3)CC2)c1 ?
True

Thanks! And FC(F)(F)c1nccc(N[C@H]2CC[C@@H](Nc3ncnc4sccc34)CC2)n1 ?
False

Proceed to FC(F)(F)c1nccc(N[C@H]2CC[C@@H](Nc3ccc4nncn4n3)CC2)n1
False

Okay, and CN(c1ccnc(C(F)(F)F)n1)[C@H]1CC[C@@H](Nc2ccc3nnc(Cl)n3n2)CC1 ?
True

FYI, the data here is from ChEMBL document CHEMBL5143527.
